Target: human isoform of the Kv1.5 channels (HEK293 cells, stably transfected) (Homo sapiens)
Construct: expressed in transfected cells; host or cells: HEK293
Assay: FLIPR thallium ion flux assay on Kv1.5 potassium channel (FLIPR Potassium Ion Channel Assay Kit)
Type: cell-based
Details: 10 μM compound, 15 min at 37° C; HEK293-hKv1.5; thallium fluorescence 30 secs after depolarising solution; normalised with 10 μM DPO
quantity-kind: inhibition at 10 µM (%)

Examples with answers:
compound	inhibition at 10 µM [%]
CC(c1ccccc1)n1ncc(-c2ccccc2C#N)c(-c2ccccc2C#N)c1=O (stereo not shown) [Example 4]	54.9
CC(c1ccccc1)n1ncc(-c2cccc(C#N)c2)c(-c2cccc(C#N)c2)c1=O (stereo not shown) [Example 5]	93.6
C[C@@H](c1ccccc1)n1ncc(-c2ccc(O)cc2)c(-c2ccc(O)cc2)c1=O [Example 2]	100

(1) CC(c1ccccc1)n1ncc(-c2ccc(O)cc2)c(-c2ccc(O)cc2)c1=O (stereo not shown) [Example 1]
(2) Cc1ccc(S(=O)(=O)Nc2cccc(-c3cnn(C(C)c4ccccc4)c(=O)c3-c3cccc(NS(=O)(=O)c4ccc(C)cc4)c3)c2)cc1 (stereo not shown) [Example 7]
Decide: 1 or 2 , by lowest recorded inhibition at 10 µM. To answer, give the label that identifies your chosen option.
2

(1) C[C@H](c1ccccc1)n1ncc(-c2ccc(O)cc2)c(-c2ccc(O)cc2)c1=O [Example 3]
(2) CC1=C(C(=O)N2CCC[C@H]2c2ccc(F)cc2)[C@@H](c2ccc(Cl)c(Cl)c2)n2nccc2N1 [BMS394136, reference compound]
Of 1 and 2 , whose reported inhibition at 10 µM is the larger number? # respond with the chosen item's label
2

----------
Target: human isoform of the Kv1.5 channels (HEK293 cells, stably transfected) (Homo sapiens, UniProt P22460)
Construct: expressed in transfected cells; host or cells: HEK293
Sequence (P22460 whole entry, canonical isoform): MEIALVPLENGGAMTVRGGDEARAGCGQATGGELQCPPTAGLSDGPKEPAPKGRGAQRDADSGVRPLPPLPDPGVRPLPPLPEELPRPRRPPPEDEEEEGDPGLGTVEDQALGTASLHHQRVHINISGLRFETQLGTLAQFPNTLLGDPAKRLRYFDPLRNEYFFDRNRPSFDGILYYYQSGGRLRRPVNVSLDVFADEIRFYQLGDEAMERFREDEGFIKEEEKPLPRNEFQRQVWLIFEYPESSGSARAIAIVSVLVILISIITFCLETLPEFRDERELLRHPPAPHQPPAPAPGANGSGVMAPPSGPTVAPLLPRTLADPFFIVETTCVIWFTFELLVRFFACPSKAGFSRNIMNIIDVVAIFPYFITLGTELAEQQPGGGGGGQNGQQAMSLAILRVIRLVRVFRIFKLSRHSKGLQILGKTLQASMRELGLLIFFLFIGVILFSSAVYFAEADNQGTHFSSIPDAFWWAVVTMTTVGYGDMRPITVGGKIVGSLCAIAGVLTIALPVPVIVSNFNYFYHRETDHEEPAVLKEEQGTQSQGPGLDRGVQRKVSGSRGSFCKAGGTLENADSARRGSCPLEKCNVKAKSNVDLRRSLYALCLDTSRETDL
Assay: FLIPR thallium ion flux assay on Kv1.5 potassium channel (FLIPR Potassium Ion Channel Assay Kit)
Format: cell-based
Settings: 10 μM compound, 15 min at 37° C; HEK293-hKv1.5; thallium fluorescence 30 secs after depolarising solution; normalised with 10 μM DPO
quantity-kind: inhibition at 10 µM (%)

compound	unit-label	endpoint-result
COc1ccc(-c2c(-c3cccc(C#N)c3)cnn(C(C)c3ccccc3)c2=O)cc1 (stereo not drawn)	%	88

(1) COc1ccc(-c2cnn(C(C)c3ccccc3)c(=O)c2-c2ccc(OC)cc2)cc1 (stereo not drawn)
(2) COc1ccc(-c2c(-c3ccccc3C#N)cnn(C(C)c3ccccc3)c2=O)cc1 (stereo not drawn)
Between the entries labelled 1 and 2 , which has a larger inhibition at 10 µM value on record? Refer to your chosen item by its label in the answer.
1
